Test system: ex vivo calcium ionophore-stimulated LTB4 production in whole blood
Assay: Murine arachidonic acid-induced inflammation model: ex vivo stimulated LTB4 production in blood
Parameters: species or system Balb/c mice
Conditions: Mus musculus; 30 mg/kg oral gavage; blood diluted 1:1, A23187 stimulated ex vivo; percent inhibition of LTB4 production; read-out: % Inh. LTB4
Structures can show the parent of a compound that is named as a salt.
A collection of compounds and their measured inhibition at 30 mg/kg
Please reply with the bare figure in % and do not write the unit itself.

These solved cases illustrate the format of a correct answer.
compound	units text	inhibition at 30 mg/kg
CC(=O)N1CCCN(Cc2coc3cc(Oc4nc5ncccc5s4)ccc23)CC1	%	85
CC(=O)N1C[C@@H]2CC[C@H]1CN2Cc1cc2ncc(Oc3nc4ncccc4s3)cc2o1 [Example 339, formate]	%	50
c1cnc2nc(Oc3ccc4oc(CN5C[C@@H]6C[C@H]5CO6)cc4c3)sc2c1	%	15
CC(=O)N1C[C@@H]2C[C@H]1CN2Cc1cc2cc(Oc3nc4ncccc4s3)ccc2o1	%	80
CC(=O)N[C@H]1C[C@H]2CC[C@@H](C1)N2Cc1coc2cc(Oc3nc4ncccc4s3)ccc12	%	85
CC(=O)N1CC2CN(Cc3coc4cc(Oc5nc6ncccc6s5)ccc34)CC2C1 (stereo not drawn)	%	92
CC(=O)N[C@@H]1C[C@H]2CC[C@@H](C1)N2Cc1coc2cc(Oc3nc4ncccc4s3)ccc12	%	93
CC(=O)N[C@H]1C[C@H]2CC[C@@H](C1)N2C(=O)c1coc2cc(Oc3nc4ncccc4s3)ccc12	%	58

// fetch ex vivo calcium ionophore-stimulated LTB4 production in whole blood inhibition at 30 mg/kg for `CC(=O)N1C[C@@H]2C[C@H]1CN2Cc1coc2cc(Oc3nc4ncccc4s3)ccc12`
83
